Test system: EKVX NSCLC
Experiment: NCI-60 one-dose screen, 48 h (100 = growth as untreated, 0 = no growth, -100 = all killed)
Settings: 10 µM unless noted
This is part of a sample that, as a whole, favours compounds with a hit. Of some 83,000 tested, about 20% had one in any assay.
Each entry below carries its reported growth.
Recorded endpoint: growth (%)

# Compound, Unit tag, Result value
measured = [
    ("CCCCCCN1C(=O)/C(=c2\\sc3n(c2=O)C2C(NN=3)N(CC)C(=O)N2CC)c2ccccc21 (stereo not drawn)", "%", 65),
    ("O=C(Cc1ccc(F)c(Cl)c1)Nc1cc(C2(C(F)(F)F)CC2)nn1CC1CCCCC1", "%", 3.93),
    ("COc1cc(C(=O)/C=C/c2c(Cl)nc3sccn23)cc(OC)c1OC", "%", 90.7),
]

###

Tested on: KM12 colon
Experiment: NCI-60 one-dose screen, 48 h
Conditions: 10 µM unless noted
About 83,000 compounds went through this panel and 20% of them were active in at least one assay; those are over-represented in the sample as a whole. Active and inactive are the calls of the source. How the source made its calls: active means growth percent below 10; inactive means the rest.
Labels: yes = active, no = inactive

# Molecule, Category
data = [
    ("COc1ccc(C(=O)C(C)C)c2ccccc12", "no"),
    ("Cc1cccc2c(=O)c3c(sc12)c(NCc1ccccc1)nc1ccccc13", "no"),
    ("CC[C@H](C)C(=O)O[C@H]1CCC=C2C=C[C@H](C)[C@H](CC[C@@H]3CC=CC(=O)O3)[C@H]21", "no"),
    ("CCCCn1c(=O)c(-c2cc(-c3ccc(Cl)cc3)nc(-c3ccc(Cl)cc3)c2)cc2cc(C)ccc21", "no"),
    ("C=C1C(=O)O[C@H]2[C@H]1CC/C(COC(=O)NCCOCCOCC(=O)Nc1ccc(OC)c(C(N)=O)c1O)=C\\CC[C@@]1(C)O[C@@H]21", "no"),
    ("CC/C=C\\C[C@@H](O)C/C=C1/C(=O)C=C[C@H]1C/C=C\\CCCC(=O)OC", "yes"),
    ("CN1C(=O)CNC(=O)[C@H](NC(=O)c2nc3ccccc3cc2O)CSSC[C@H]1C(=O)NCCCc1nc2ccccc2cc1O", "no"),
    ("N[C@@H](Cc1ccccc1)[C@@H](O)C(=O)NCc1ccc(F)cc1", "no"),
    ("C#C[C@]1(O)CC[C@H]2[C@@H]3CC=C4c5sc(Nc6ccccc6)nc5CC[C@]4(C)[C@H]3CC[C@@]21C", "no"),
    ("COc1ccccc1/C=C1\\Oc2cc(OCCN3CCC(Cc4ccccc4)CC3)ccc2C1=O", "no"),
    ("COc1ccc(-c2csc(NC(=O)N3CCN(c4cc5c(cc4F)c(=O)c(C(=O)O)cn5C4CC4)CC3)n2)cc1", "yes"),
    ("CCN(CC)S(=O)(=O)c1ccc(NC(=O)CSc2nnc(C)n2-c2ccccc2)cc1", "no"),
    ("N#CC1=C(N)Oc2c(sc3c(Br)cccc23)C1c1ccc([N+](=O)[O-])cc1 (centres undefined)", "yes"),
    ("COc1ccc2nc(NC(=O)c3cccnc3Nc3ccc(S(N)(=O)=O)cc3)sc2c1", "no"),
    ("NCCCNc1nc2ccccc2c2c(=O)c3cc(F)cc(F)c3sc12", "no"),
    ("Cc1nc2nc(SCC(=O)O)[nH]c2c(=O)[nH]1", "no"),
    ("CC(=O)N1N=C(c2ccc(Nc3nc(Nc4ccc(F)cc4)nc(Nc4ccc(Cl)cc4)n3)cc2)CC1c1ccc(Cl)cc1 (centres undefined)", "no"),
    ("CC(=O)OC[C@H]1OC(Sc2sc(C(=O)c3ccc(Cl)cc3)c(N)c2-c2nc3ccccc3s2)[C@H](OC(C)=O)[C@@H](OC(C)=O)[C@@H]1OC(C)=O (some centres undefined)", "no"),
    ("CCOC(=O)NCCc1ccccc1", "no"),
    ("O=c1[nH][n+](-c2ccc(Br)cc2)no1", "no"),
    ("NCCNc1nc2ccccc2c2c(=O)c3cc(F)ccc3sc12", "no"),
    ("COc1cccc(-c2nc(-c3ccc(NC(=O)C(C)C)cc3)[nH]c2-c2ccnc(Br)c2)c1", "no"),
    ("Nc1ccccc1-c1cc2c(c3c1[nH]c1ccccc13)CCCCC2", "no"),
    ("CCOC(=O)c1cn2ncnc(Oc3ccc(NC(=O)NCCN(C)C)c(Cl)c3)c2c1C", "no"),
    ("COc1ccc(CN2c3ccccc3CCc3ccccc32)cc1F", "no"),
    ("CCOC(=O)C1=C(N)Oc2c(sc3c(C)cccc23)C1c1ccc(OC)cc1 (centres undefined)", "no"),
    ("N#CC1=C(N)Oc2c(sc3c(Br)cccc23)C1c1ccc(Br)cc1 (centres undefined)", "no"),
    ("O=C1/C(=C/c2ccc(F)cc2)Sc2c(Br)cccc21", "no"),
    ("Cc1ccc(S(=O)(=O)N/N=C/C2(c3ccccc3)CC2)cc1", "no"),
]
